Please go through the items and note down their variant/HC_K99L.
# targetSystem: T1, human tissue factor pathway inhibitor (TFPI) (human, UniProt P10646 29-304, limits assumed)
# T1 construct: bought; also called hTFPI; human TFPI
# T1 sequence (looked up): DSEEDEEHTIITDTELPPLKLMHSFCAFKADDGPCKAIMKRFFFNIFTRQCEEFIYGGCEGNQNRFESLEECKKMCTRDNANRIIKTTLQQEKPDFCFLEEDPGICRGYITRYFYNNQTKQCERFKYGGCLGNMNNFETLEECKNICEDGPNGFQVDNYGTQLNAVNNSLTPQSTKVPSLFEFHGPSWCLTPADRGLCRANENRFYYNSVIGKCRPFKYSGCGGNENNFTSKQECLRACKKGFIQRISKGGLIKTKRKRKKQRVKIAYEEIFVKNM
# measurementNotes: competitive ELISA

Please report the recorded variant/HC_K99L for 2A8-200 (HC S35D+S55R+K99L/LC Y48F+N51V+D91W) (Fab, V domains shown) VH: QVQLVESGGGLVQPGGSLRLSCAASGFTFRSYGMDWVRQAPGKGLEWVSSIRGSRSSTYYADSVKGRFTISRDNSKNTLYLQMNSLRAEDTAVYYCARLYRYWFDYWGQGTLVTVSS VL: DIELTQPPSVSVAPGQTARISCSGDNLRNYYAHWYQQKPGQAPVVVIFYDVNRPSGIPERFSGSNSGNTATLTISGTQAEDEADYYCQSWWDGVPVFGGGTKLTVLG .
19.7 ratio

Please report the recorded variant/HC_K99L for 2A8 HC S35D+S50A+S55R+K99L/LC Y48F+N51V+D91W (Fab, V domains shown) VH: QVQLVESGGGLVQPGGSLRLSCAASGFTFRSYGMDWVRQAPGKGLEWVSAIRGSRSSTYYADSVKGRFTISRDNSKNTLYLQMNSLRAEDTAVYYCARLYRYWFDYWGQGTLVTVSS VL: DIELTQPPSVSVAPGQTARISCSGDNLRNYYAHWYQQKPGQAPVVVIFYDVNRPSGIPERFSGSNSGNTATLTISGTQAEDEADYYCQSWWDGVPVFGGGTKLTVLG .
10.9 ratio
